Target: Cytochrome P450 2D6 (Homo sapiens) (UniProt P10635)
Sequence (P10635 whole entry, looked up): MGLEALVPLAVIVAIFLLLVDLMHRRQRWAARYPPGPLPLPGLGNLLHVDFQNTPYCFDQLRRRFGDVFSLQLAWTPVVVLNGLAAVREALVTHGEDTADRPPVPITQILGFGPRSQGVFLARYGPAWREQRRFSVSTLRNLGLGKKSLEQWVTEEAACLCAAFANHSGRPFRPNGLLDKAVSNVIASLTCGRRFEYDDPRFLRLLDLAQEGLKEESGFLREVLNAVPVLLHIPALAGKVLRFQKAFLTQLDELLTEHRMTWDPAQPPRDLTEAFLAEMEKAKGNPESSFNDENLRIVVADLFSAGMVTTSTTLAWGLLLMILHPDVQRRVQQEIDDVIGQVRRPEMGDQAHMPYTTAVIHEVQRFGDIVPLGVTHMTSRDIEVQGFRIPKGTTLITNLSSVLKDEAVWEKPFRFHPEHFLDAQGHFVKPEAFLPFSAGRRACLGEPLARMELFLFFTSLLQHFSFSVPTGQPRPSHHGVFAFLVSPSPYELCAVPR
Experiment: Cytochrome panel assay with activity outcomes
Settings: recombinant CYP, pro-luciferin dealkylation, luminescence, p450-cyp2d6; series mostly up to 57.1 µM
The campaign covered roughly 16,000 compounds. About 2,600 (16%) were called active. Another 20% or so got no clear call; they are omitted. Calls come from the whole dose curve; as a rule, active = well fitted curve in the direction sought with a large enough effect; inconclusive = small, poorly fitted or top-dose-only effect, or effect the other way; inactive = no such curve, though single readings can be large or run the other way. The list is a sample of the results.
Lab note: assign the record to one of TRUE = active, FALSE = inactive

The following molecules have reported results that may help.
1. CCCCCC(=O)O[C@H](CC(=O)O)C[N+](C)(C)C | FALSE
2. CC1CN(C(=O)CN2C(=O)NC3(CCCCCC3)C2=O)CC(C)O1 (configuration not stated) | FALSE
3. CC1(C)O[C@@H]2C[C@H]3[C@H]4C[C@H](F)C5=CC(=O)C=C[C@@]5(C)[C@@H]4[C@H](O)C[C@]3(C)[C@]2(C(=O)CO)O1 | FALSE
4. Cn1ncc(Cl)c1C(=O)Nc1cccnc1 | FALSE
5. COc1cc(N)c(Cl)cc1C(=O)NC1CCN(Cc2ccccc2)CC1 | TRUE

input: For `CCOC(=O)c1cnc(-c2ccccc2)nc1Oc1ccccc1` , which call appears in the assay record?
output: FALSE

input: Record lookup: outcome of this test for `O=C(Nc1cccnc1)c1ccc2snnc2c1` ?
output: TRUE

input: Write down the call the test reported for this molecule. Item: `O=C(Nc1ccccc1)N1CC2(CCN(C(=O)c3cc(C(F)(F)F)cc(C(F)(F)F)c3)CC2)C1`
output: FALSE

input: Short answer needed: outcome of this test for CC(C)C(NC(=O)C1CCCCC1)C(=O)NC1CCN(Cc2ccccc2)CC1 (configuration not stated) ?
output: FALSE

input: Each molecule tested received a call. Report the one for CCCCC(=O)NC(Nc1cc(C)ccn1)(C(=O)OCC)C(F)(F)F (configuration not stated) .
output: FALSE

input: What did this assay record as the result for `C[C@H]1CC(C)(C)C[C@@](OCCN2CCCCC2)(c2ccccc2)C1` ?
output: TRUE

input: Hello, I am checking results. What call was entered for CCc1ccc(OCC(=O)OC2CCS(=O)(=O)C2)cc1 (configuration not stated) ?
output: FALSE

input: Write down the call the test reported for this molecule. Item: `CCOC(=O)c1cnc(SCCc2ccccc2)nc1N`
output: TRUE

input: Tell me the recorded outcome of this test for `N#Cc1ccc(CN2CC[C@@]3(CCCN(C(=O)c4cc(C(F)(F)F)cc(C(F)(F)F)c4)C3)C2)cc1` .
output: FALSE

input: For this molecule, state the assay outcome: CC(C(=O)Nc1cccnc1)N1C(=O)C2C3C=CC(C3)C2C1=O (configuration not stated)
output: FALSE

input: Could you kindly confirm the outcome this assay logged for `CC[N+](CC)(CC)CC` ?
output: FALSE

====

Target: Cytochrome P450 2D6 (Homo sapiens)
Experiment: Cytochrome panel assay with activity outcomes
Details: recombinant CYP, pro-luciferin dealkylation, luminescence, p450-cyp2d6; series mostly up to 57.1 µM
Method: The P450 gene superfamily is involved in the metabolism and clearance of xenobiotics. This assay used various human CYP P450 isozymes to measure the dealkylation of various pro-luciferin substrates to luciferin. The luciferin is then measured by luminescence after the addition of a luciferase detection reagent. […] Inhibitors and some substrates limit the production of luciferin, and decrease measured luminescence. […] 8, Detection, 1 sec, ViewLux luminescent read […]
About 2,600 (16%) of roughly 16,000 compounds were called active. Another 20% or so got no clear call; they are omitted. The call rests on the fitted dose curve; in most records, active means well fitted curve in the direction sought with a large enough effect; inconclusive means small, poorly fitted or top-dose-only effect, or effect the other way; inactive means no such curve, though single readings can be large or run the other way. A selection follows.
Valid outcomes are listed here; reply with one: yes (1) = active, no (0) = inactive

1) COc1ccc(-n2c(=O)c(-c3cn(C)c4ccccc34)nc3cnc(OC)nc32)cc1 | no (0)
2) COc1ccc(CNc2ncncc2-c2cccnc2)c(OC)c1 | yes (1)
3) Cc1ccc(S(=O)(=O)Nc2ccc(=O)n(Cc3ccc(Cl)c(Cl)c3)c2)cc1 | yes (1)
4) O=c1nc2ccccc2c(NS(=O)(=O)c2ccc(Cl)cc2)n1-c1ccccc1 | no (0)
5) COc1cccc(-c2cncnc2NCc2ccccc2OC)c1 | yes (1)

With those in mind, consider the next compound.
input: What classification did CC(C)(C)c1ccc(C2CC2C(=O)N/N=C\c2cc3ccccc3nc2Cl)cc1 (stereo unspecified) end up with in this test?
output: no (0)
